System: Escherichia coli TOP10
PROCEDURE TEXT: shrunken log2 fold change of peptide-encoding DNA abundance (4.5 h post-induction vs induction); higher = less antimicrobial activity (less host growth inhibition)
EXPERIMENTAL CONTEXT: time post-induction: 4.5 h; library: site-saturation at positions 5, 18, 19, 20
So I've got a bunch of sequences here, and I need their shrunken log2 fold change values.
Reply with just the number.

Query :: I'd like to know its shrunken log2 fold change. The sequence in question is RRIRVRPPRLPRPRPRPVTYPRP
Result :: -0.288

Query :: Item: RRIRNRPPRLPRPRPRPMHNPRP
Result :: -0.286

Query :: Item: RRIRTRPPRLPRPRPRPYPPPRP
Result :: -0.203

Query :: Item: RRIRDRPPRLPRPRPRPFRPPRP
Result :: 0.0778

Query :: Item: RRIRWRPPRLPRPRPRPHNTPRP
Result :: -0.391

Query :: Item: RRIRHRPPRLPRPRPRPFCAPRP
Result :: 0.076

Query :: Item: RRIRNRPPRLPRPRPRPDVQPRP
Result :: -0.13

Query :: Item: RRIRERPPRLPRPRPRPCNVPRP
Result :: -0.0745

Query :: Item: RRIRQRPPRLPRPRPRPGSLPRP
Result :: 0.143

Query :: Item: RRIRDRPPRLPRPRPRPICSPRP
Result :: 0.0206

Query :: Item: RRIRTRPPRLPRPRPRPLVAPRP
Result :: 0.106

Query :: Item: RRIRKRPPRLPRPRPRPQQLPRP
Result :: 0.0814

Query :: Item: RRIRKRPPRLPRPRPRPQQFPRP
Result :: -0.0324

Query :: Item: RRIRGRPPRLPRPRPRPLHQPRP
Result :: 0.665

Query :: Item: RRIRHRPPRLPRPRPRPACIPRP
Result :: -0.132

* * *

System: Escherichia coli TOP10
PROCEDURE TEXT: shrunken log2 fold change of peptide-encoding DNA abundance (4.5 h post-induction vs induction); higher = less antimicrobial activity (less host growth inhibition)
EXPERIMENTAL CONTEXT: time post-induction: 4.5 h; library: site-saturation at positions 5, 18, 19, 20
Binning of shrunken log2 fold change into classes: Low: < -0.09; Medium: ≥ -0.09 and < 0.1; High: ≥ 0.1

Query :: Sort RRIRERPPRLPRPRPRPIQIPRP into one of the categories.
Result :: Low

Query :: Item: RRIRHRPPRLPRPRPRPDVSPRP
Result :: Low

Query :: Item: RRIRERPPRLPRPRPRPHMTPRP
Result :: Medium

Query :: Item: RRIRVRPPRLPRPRPRPAENPRP
Result :: High

Query :: Item: RRIRRRPPRLPRPRPRPEWLPRP
Result :: High

Query :: Item: RRIRFRPPRLPRPRPRPEATPRP
Result :: High

Query :: Item: RRIRCRPPRLPRPRPRPRNWPRP
Result :: High

Query :: Item: RRIRARPPRLPRPRPRPGYGPRP
Result :: High

Query :: Item: RRIRARPPRLPRPRPRPYTCPRP
Result :: Medium

Query :: Item: RRIRTRPPRLPRPRPRPHDVPRP
Result :: Medium

Query :: Item: RRIRNRPPRLPRPRPRPHDTPRP
Result :: Low

Query :: Item: RRIRKRPPRLPRPRPRPTYNPRP
Result :: Medium

Query :: Item: RRIRFRPPRLPRPRPRPFPEPRP
Result :: Low

Query :: Item: RRIRDRPPRLPRPRPRPDQRPRP
Result :: Medium

Query :: Item: RRIRQRPPRLPRPRPRPNEAPRP
Result :: Medium

* * *

Tested on: Escherichia coli TOP10
PROCEDURE TEXT: shrunken log2 fold change of peptide-encoding DNA abundance (4.5 h post-induction vs induction); higher = less antimicrobial activity (less host growth inhibition)
EXPERIMENTAL CONTEXT: time post-induction: 4.5 h; library: site-saturation at positions 5, 18, 19, 20
Note to self: values exactly at 0.05 are 1. So shrunken log2 fold change at or above 0.05 is 1, below is -1.

Query :: Given RRIRTRPPRLPRPRPRPIVMPRP , state whether its shrunken log2 fold change is at least 0.05.
Result :: -1

Query :: Item: RRIRHRPPRLPRPRPRPTKAPRP
Result :: -1

Query :: Item: RRIRQRPPRLPRPRPRPRLRPRP
Result :: 1

Query :: Item: RRIRYRPPRLPRPRPRPVCEPRP
Result :: -1

Query :: Item: RRIRPRPPRLPRPRPRPVPTPRP
Result :: 1

Query :: Item: RRIRPRPPRLPRPRPRPMTRPRP
Result :: 1

Query :: Item: RRIRFRPPRLPRPRPRPAGNPRP
Result :: 1

* * *

Test system: Escherichia coli TOP10
PROCEDURE TEXT: shrunken log2 fold change of peptide-encoding DNA abundance (4.5 h post-induction vs induction); higher = less antimicrobial activity (less host growth inhibition)
EXPERIMENTAL CONTEXT: time post-induction: 4.5 h; library: site-saturation at positions 5, 18, 19, 20
QUANTITY: shrunken log2 fold change
Reply with just the number.

Query :: I'd like to know its shrunken log2 fold change. The sequence in question is RRIRFRPPRLPRPRPRPPMVPRP
Result :: -0.391

Query :: Item: RRIRGRPPRLPRPRPRPIRYPRP
Result :: -0.0811

Query :: Item: RRIRPRPPRLPRPRPRPVFIPRP
Result :: -0.235

Query :: Item: RRIRSRPPRLPRPRPRPRKCPRP
Result :: 0.149

Query :: Item: RRIRLRPPRLPRPRPRPGDIPRP
Result :: -0.385

Query :: Item: RRIRIRPPRLPRPRPRPLSKPRP
Result :: -0.901

Query :: Item: RRIRSRPPRLPRPRPRPADLPRP
Result :: 0.274

Query :: Item: RRIRIRPPRLPRPRPRPYNWPRP
Result :: -0.577

Query :: Item: RRIRFRPPRLPRPRPRPMGCPRP
Result :: 0.125

Query :: Item: RRIRFRPPRLPRPRPRPWVYPRP
Result :: -0.327

Query :: Item: RRIRDRPPRLPRPRPRPNNVPRP
Result :: -0.243

Query :: Item: RRIRGRPPRLPRPRPRPCMVPRP
Result :: 0.304

Query :: Item: RRIRVRPPRLPRPRPRPPIVPRP
Result :: 0.0432

Query :: Item: RRIRIRPPRLPRPRPRPLTVPRP
Result :: -0.114

Query :: Item: RRIRCRPPRLPRPRPRPQMIPRP
Result :: -1.55

Query :: Item: RRIRFRPPRLPRPRPRPFRFPRP
Result :: -0.129

Query :: Item: RRIRHRPPRLPRPRPRPHIAPRP
Result :: -0.0808

Query :: Item: RRIRGRPPRLPRPRPRPKHIPRP
Result :: -0.00571

Query :: Item: RRIRNRPPRLPRPRPRPLELPRP
Result :: -0.0825

Query :: Item: RRIRARPPRLPRPRPRPFRSPRP
Result :: -0.0968

Query :: Item: RRIRHRPPRLPRPRPRPWCCPRP
Result :: -0.352

Query :: Item: RRIRMRPPRLPRPRPRPMTEPRP
Result :: 0.12

Query :: Item: RRIRWRPPRLPRPRPRPYYVPRP
Result :: -0.213

Query :: Item: RRIRTRPPRLPRPRPRPRAAPRP
Result :: 0.385

Query :: Item: RRIRRRPPRLPRPRPRPCVAPRP
Result :: 0.261

Query :: Item: RRIRNRPPRLPRPRPRPQDNPRP
Result :: 0.0553

Query :: Item: RRIRNRPPRLPRPRPRPGKSPRP
Result :: -0.0101

Query :: Item: RRIRWRPPRLPRPRPRPLMYPRP
Result :: -0.0465

Query :: Item: RRIRPRPPRLPRPRPRPPANPRP
Result :: 0.418

Query :: Item: RRIRVRPPRLPRPRPRPGVRPRP
Result :: 0.188

Query :: Item: RRIRDRPPRLPRPRPRPRYEPRP
Result :: 0.223

Query :: Item: RRIRRRPPRLPRPRPRPTKNPRP
Result :: 0.395

* * *

Test system: Escherichia coli TOP10;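 also: peptides expressed intracellularly from a pBAD plasmid library in pooled LB shake-flask culture, induced with 0.3% L-arabinose, DNA abundance read by NGS, three biological replicates, DESeq2 with apeglm shrinkage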
PROCEDURE TEXT: shrunken log2 fold change of peptide-encoding DNA abundance (4.5 h post-induction vs induction); higher = less antimicrobial activity (less host growth inhibition)
EXPERIMENTAL CONTEXT: time post-induction: 4.5 h; library: site-saturation at positions 5, 18, 19, 20
Binning of shrunken log2 fold change into classes: bin 0: < -0.4; bin 1: ≥ -0.4 and < -0.04; bin 2: ≥ -0.04

Query :: Sort RRIRGRPPRLPRPRPRPWNDPRP into one of the categories.
Result :: bin 1

Query :: Item: RRIRSRPPRLPRPRPRPCYDPRP
Result :: bin 0

Query :: Item: RRIRLRPPRLPRPRPRPANYPRP
Result :: bin 2

Query :: Item: RRIRDRPPRLPRPRPRPWTLPRP
Result :: bin 0

Query :: Item: RRIRTRPPRLPRPRPRPKAWPRP
Result :: bin 2

Query :: Item: RRIRDRPPRLPRPRPRPDWKPRP
Result :: bin 2

Query :: Item: RRIRWRPPRLPRPRPRPTSYPRP
Result :: bin 1

Query :: Item: RRIRNRPPRLPRPRPRPLFYPRP
Result :: bin 0

Query :: Item: RRIRIRPPRLPRPRPRPGNCPRP
Result :: bin 0

Query :: Item: RRIRTRPPRLPRPRPRPLIEPRP
Result :: bin 1

Query :: Item: RRIRCRPPRLPRPRPRPDEWPRP
Result :: bin 2

Query :: Item: RRIRHRPPRLPRPRPRPLASPRP
Result :: bin 2

Query :: Item: RRIRNRPPRLPRPRPRPQQLPRP
Result :: bin 1

Query :: Item: RRIRIRPPRLPRPRPRPHIEPRP
Result :: bin 1
